Target chain: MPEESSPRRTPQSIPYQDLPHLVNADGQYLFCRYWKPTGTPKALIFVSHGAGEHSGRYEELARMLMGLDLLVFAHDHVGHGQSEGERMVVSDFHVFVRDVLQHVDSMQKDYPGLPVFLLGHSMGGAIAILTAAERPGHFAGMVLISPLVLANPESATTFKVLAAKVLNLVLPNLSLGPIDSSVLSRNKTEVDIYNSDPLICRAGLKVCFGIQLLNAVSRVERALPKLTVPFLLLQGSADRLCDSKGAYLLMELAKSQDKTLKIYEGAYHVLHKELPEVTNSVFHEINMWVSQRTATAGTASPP
readout-name: IC50 (nM)
# number only, unit nM dropped from output

INSERT INTO assay_data (compound_string, readout_number) VALUES
  ('O=C(N1CC2(CCC(Cc3nnc(C(F)(F)F)[nH]3)CC2)C1)N1CC2(CC(n3cnc(C4(O)CC4)n3)C2)C1', 114);

For reference, reported IC50 for Cc1nc(C(F)(F)F)c(CN2CC3(C2)CN(C(=O)N2CC4(CC(n5cnc(C6(O)CC6)n5)C4)C2)C3)s1 stands at 351

Noted for CC(C)(C)c1noc(CN2CC3(C2)CN(C(=O)N2CC4(CC(n5cnc(C6CC6)n5)C4)C2)C3)n1 : its IC50 reads 2

Entry O=C(N1CC2(CC(n3cnc(C4(O)CC4)n3)C2)C1)N1CC2(CN(Cc3ncc(C(F)(F)F)s3)C2)C1 , IC50 reported as 10.8

Every entry's value here was drawn from patent US20260374756A1.
